Taken from patent US20030004172A1.

molecular target: MMP-13CD (catalytic domain of collagenase-3) (Homo sapiens); assay: Thiopeptolide substrate hydrolysis inhibition assay, MMP-13CD; assay type: biochemical; settings: Table I; thiopeptolide substrate, HEPES pH 7.0, 22° C.; read-out: MMP-13CD IC50
Please assign condition not met whenever IC50 is at or above 30 µM, and condition met whenever it is below.

Cn1c(=O)n(Cc2ccccc2)c(=O)c2cc(C(=O)OCc3c(F)c(F)c(F)c(F)c3F)sc21: condition not met
Cn1c(=O)n(Cc2ccccc2CS(=O)(=O)c2ccccc2)c(=O)c2cc(C(=O)OCc3ccccc3)sc21: condition met
Cn1c(=O)n(Cc2ccccc2)c(=O)c2cc(C(=O)OCc3ccc([N+](=O)[O-])cc3)sc21: condition met
Cn1c(=O)n(Cc2ccccc2)c(=O)c2cc(C(=O)OCc3c(Cl)cccc3Cl)sc21: condition met
Cn1c(=O)n(Cc2ccccc2)c(=O)c2cc(C(=O)OCCOc3ccccc3)sc21: condition not met

Alright, here's another compound for you.
*Q* Quick check: IC50 of Cn1c(=O)n(Cc2ccc(S(C)(=O)=O)cc2)c(=O)c2cc(C(=O)OCc3ccccc3)sc21 [Example 102] under 30 µM?
*A* condition met

---

We begin with a simple list: items and their reported pIC50.
target: MMP-13CD (catalytic domain of collagenase-3) (Homo sapiens); assay: Thiopeptolide substrate hydrolysis inhibition assay, MMP-13CD; assay type: biochemical; conditions: Table I; thiopeptolide substrate, HEPES pH 7.0, 22° C.; read-out: MMP-13CD IC50
Reminder that pIC50 is minus the log10 of a molar concentration.

Sample answers from the record:
COc1cccc(CNC(=O)c2cc3c(=O)n(CCS(=O)(=O)c4ccc(Cl)cc4)c(=O)n(C)c3s2)c1: 5.25
COc1cccc(CNC(=O)c2cc3c(=O)n(CCOc4ccccc4)c(=O)n(C)c3s2)c1: 7.24

Then this molecule:
*Q* Provide value of pIC50 for this record tested with MMP-13CD (catalytic domain of collagenase-3) (Homo sapiens): Cn1c(=O)n(Cc2ccccc2)c(=O)c2cc(C(=O)OCc3ccc4c(c3)OCO4)sc21
*A* 6.52

---

Protein target, amino acids: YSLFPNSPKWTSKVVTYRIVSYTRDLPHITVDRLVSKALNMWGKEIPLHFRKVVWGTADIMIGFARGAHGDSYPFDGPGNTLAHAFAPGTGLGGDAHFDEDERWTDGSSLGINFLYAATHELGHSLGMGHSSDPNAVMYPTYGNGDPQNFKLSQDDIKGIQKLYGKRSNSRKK
Output Y for records whose IC50 is lower than 30 µM, N for records at or above 30 µM.

// known answers, use as guide
Cn1c(=O)n(Cc2ccccc2)c(=O)c2cc(C(=O)OCc3ccncc3)sc21: N
COC(=O)c1ccc(Cn2c(=O)c3cc(C(=O)NCc4ccc(OC)cc4)sc3n(C)c2=O)cc1OC: Y
COc1cccc(CNC(=O)c2cc3c(=O)n(CCS(=O)(=O)c4ccc(Cl)cc4)c(=O)n(C)c3s2)c1: N

Shifting focus to the compound that follows.
*Q* # check: IC50 < 30 µM for CCCCNC(=O)NS(=O)(=O)c1ccc(Cn2c(=O)c3cc(C(=O)NCc4cccc(OC)c4)sc3n(C)c2=O)cc1 [Example 231a]
*A* N

---

biological target: MMP-13CD (catalytic domain of collagenase-3) (Homo sapiens); experiment: Thiopeptolide substrate hydrolysis inhibition assay, MMP-13CD; format: biochemical; settings: Table I; thiopeptolide substrate, HEPES pH 7.0, 22° C.; read-out: MMP-13CD IC50
Category key, based on recorded IC50: lowest = under 20 nM, middle = from 20 nM up to 700 nM, highest = 700 nM and over

For orientation, consider the following solved cases.
COc1cccc(CNC(=O)c2cc3c(=O)n(CC=C(C)C)c(=O)n(C)c3s2)c1: highest
Cn1c(=O)n(CCCOc2ccccc2)c(=O)c2cc(C(=O)OCc3ccccc3)sc21: highest
Cn1c(=O)n(Cc2ccc(OC(F)(F)F)cc2)c(=O)c2cc(C(=O)OCc3ccccc3)sc21: middle
CC(C)CCOC(=O)c1cc2c(=O)n(Cc3ccccc3)c(=O)n(C)c2s1: highest
COc1cccc(CNC(=O)c2cc3c(=O)n(Cc4ccc(C5(C(=O)O)CC5)cc4)c(=O)n(C)c3s2)c1: lowest

*Q* For the record COc1ccc(CNC(=O)c2cc3c(=O)n(Cc4ccccc4)c(=O)n(C)c3s2)c(OC)c1 , report the class its IC50 corresponds to.
*A* highest

*Q* Then this molecule: COc1ccc(CNC(=O)c2cc3c(=O)n(Cc4ccc(-c5noc(=O)[nH]5)cc4)c(=O)n(C)c3s2)cc1
*A* lowest

*Q* For COc1cccc(CNC(=O)c2cc3c(=O)n(CC[C@@H](C)CCC=C(C)C)c(=O)n(C)c3s2)c1 then?
*A* highest

*Q* Entry to check: Cn1c(=O)n(Cc2ccccc2)c(=O)c2cc(C(=O)NCc3ccccc3)sc21 [Example 11]
*A* middle

*Q* COc1cccc(COC(=O)c2cc3c(=O)n(Cc4ccc(-c5nn[nH]n5)cc4)c(=O)[nH]c3s2)c1 ?
*A* lowest

*Q* Now the same for COc1cccc(CNC(=O)c2cc3c(=O)n(Cc4ccc(S(=O)(=O)NC5CC5)cc4)c(=O)n(C)c3s2)c1
*A* lowest

*Q* Another: Cn1c(=O)n(Cc2ccccc2)c(=O)c2cc(C(=O)OCc3ccoc3)sc21
*A* middle

*Q* Further, for CCC(C)Cn1c(=O)c2cc(C(=O)OCc3ccccc3)sc2n(C)c1=O (stereo not shown) ?
*A* middle

*Q* How about COc1cccc(CNC(=O)c2cc3c(=O)n(CCOc4ccc(F)cc4)c(=O)n(C)c3s2)c1 ?
*A* middle

---

biological target: MMP-13CD (catalytic domain of collagenase-3) (Homo sapiens, UniProt P45452); assay: Thiopeptolide substrate hydrolysis inhibition assay, MMP-13CD; type: biochemical; details: Table II; micromolar concentration; HEPES pH 7.0; read-out: IC50 MMP-13CD
This section presents compounds with their documented IC50 values.
Give the number; µM is assumed, so skip it.

Examples from the recorded data:
O=C(OCc1ccccc1)c1cc2c(=O)n(Cc3ccccc3)c(=O)[nH]c2s1: 0.61
CCCCNC(=O)NS(=O)(=O)c1ccc(Cn2c(=O)c3cc(C(=O)NCc4cccc(OC)c4)sc3n(C)c2=O)cc1 [Example 231a]: 0.009
COC(=O)c1ccc(Cn2c(=O)c3cc(C(=O)NCc4ccc(OC)cc4)sc3n(C)c2=O)cc1OC: 0.435
COc1ccc(CNC(=O)c2cc3c(=O)n(Cc4ccc(S(N)(=O)=O)cc4)c(=O)n(C)c3s2)cc1: 0.0785
COC(=O)c1ccc(Cn2c(=O)c3cc(C(N)=O)sc3n(C)c2=O)cc1C [Example 249a]: 0.64

*Q* // map Cn1c(=O)n(Cc2ccccc2)c(=O)c2cc(C(=O)OCc3ccncc3)sc21 to recorded IC50 (system: MMP-13CD (catalytic domain of collagenase-3) (Homo sapiens, UniProt P45452))
*A* 0.0036

*Q* Same lookup for COc1cccc(CNC(=O)c2cc3c(=O)n(CCS(=O)(=O)c4ccc(Cl)cc4)c(=O)n(C)c3s2)c1 , please.
*A* 5.65

*Q* Thanks! And COc1cccc(CNC(=O)c2cc3c(=O)n(Cc4ccc(CC(=O)O)cc4)c(=O)n(C)c3s2)c1 ?
*A* 0.0038

---

target: MMP-13CD (catalytic domain of collagenase-3) (Homo sapiens, UniProt P45452); experiment: Thiopeptolide substrate hydrolysis inhibition assay, MMP-13CD; format: biochemical; settings: Table I; thiopeptolide substrate, HEPES pH 7.0, 22° C.; read-out: MMP-13CD IC50
Listed molecules paired with reported IC50
Give the number; nM is assumed, so skip it.

Below, each entry is followed by its recorded IC50 result.
COc1ccc(CNC(=O)c2cc3c(=O)n(CCC(=O)c4ccccc4)c(=O)n(C)c3s2)cc1 [Example 254]: 1500
COc1ccc(CNC(=O)c2cc3c(=O)n(CC#N)c(=O)n(C)c3s2)cc1: 1550
Cn1c(=O)n(CCOc2ccccc2)c(=O)c2cc(C(=O)OCc3ccccc3)sc21 [Example 133]: 74

Here is another molecule to look at.
*Q* I'm curious: which IC50 was measured for Cn1c(=O)n(Cc2ccccc2)c(=O)c2cc(C(=O)OCc3cc4ccccc4o3)sc21 tested on MMP-13CD (catalytic domain of collagenase-3) (Homo sapiens, UniProt P45452)?
*A* 1450

---

Quick record of pIC50 values for MMP-3CD (catalytic domain of stromelysin-1) (Homo sapiens, UniProt P08254).
API: returns pIC50 as number; meaning -log10 of concentration in mol/L.

Use the examples below as a reference point.
COC(=O)c1ccc(Cn2c(=O)c3cc(C(=O)NCc4ccc(OC)cc4)sc3n(C)c2=O)cc1OC: 4.82
CCCCNC(=O)NS(=O)(=O)c1ccc(Cn2c(=O)c3cc(C(=O)NCc4cccc(OC)c4)sc3n(C)c2=O)cc1 [Example 231a]: 4.89
COc1ccc(CNC(=O)c2cc3c(=O)n(Cc4ccc(S(N)(=O)=O)cc4)c(=O)n(C)c3s2)cc1: 4.57

*Q* Using the record for COc1cccc(CNC(=O)c2cc3c(=O)n(CCS(=O)(=O)c4ccc(Cl)cc4)c(=O)n(C)c3s2)c1 , report its pIC50.
*A* 4.64

*Q* Let us now turn to COc1ccc(CNC(=O)c2cc3c(=O)n(Cc4ccc([N+](=O)[O-])nc4)c(=O)n(C)c3s2)cc1
*A* 5.00

*Q* Consider next the compound COc1ccc(CNC(=O)c2cc3c(=O)n(CCOc4ccc(Br)cc4)c(=O)n(C)c3s2)cc1 in the same way.
*A* 4.77

*Q* For COc1ccc(CNC(=O)c2cc3c(=O)n(Cc4cccc(OC)c4)c(=O)n(C)c3s2)cc1 then?
*A* 4.74

*Q* Next entry: O=C(OCc1ccncc1)c1cc2c(=O)n(Cc3ccc(Br)cc3)c(=O)[nH]c2s1
*A* 4.64
